Reported inhibition values for a set of compounds
MEASURED_TARGET: 5-hydroxytryptamine receptor 1E (Homo sapiens) (UniProt P28566)
Sequence (P28566 whole entry): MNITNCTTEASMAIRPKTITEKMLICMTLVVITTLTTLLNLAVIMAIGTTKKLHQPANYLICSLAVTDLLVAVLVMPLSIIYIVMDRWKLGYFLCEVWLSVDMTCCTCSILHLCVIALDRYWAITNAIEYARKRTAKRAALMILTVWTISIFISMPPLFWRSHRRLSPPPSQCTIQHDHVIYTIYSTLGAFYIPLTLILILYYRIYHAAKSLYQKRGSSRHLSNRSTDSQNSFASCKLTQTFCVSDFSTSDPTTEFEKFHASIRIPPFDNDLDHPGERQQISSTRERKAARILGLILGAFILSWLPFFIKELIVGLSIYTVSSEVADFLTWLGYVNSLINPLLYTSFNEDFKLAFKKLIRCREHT
PROTOCOL_NOTES: Displacement of [3H]5HT from 5HT1E receptor (unknown origin) at 10 uM
ATTRIBUTE_MEASURED: inhibition (%)

COMPOUND	UNIT_SYMBOL	RECORDED_NUMBER
CCCOc1c(OC)cc2c3c1-c1cc4c(cc1CC3N(C)CC2c1ccccc1)OCO4 (stereo not given)	%	2.1
CCN1CC(c2ccccc2)c2cc(OC)c(OC)c3c2C1Cc1cc2c(cc1-3)OCO2 (stereo not given)	%	5
COc1cc2c3c(c1OC)-c1cc4c(cc1CC3N(CC1CC1)CC2c1ccccc1)OCO4 (stereo not given)	%	3.5
COc1cc2c3c(c1O)-c1cc4c(cc1CC3N(C)CC2c1ccccc1)OCO4 (stereo not given)	%	11
CCOc1c(OC)cc2c3c1-c1cc4c(cc1CC3N(C)CC2c1ccccc1)OCO4 (stereo not given)	%	10.3

---

MEASURED_TARGET: 5-hydroxytryptamine receptor 2C (Homo sapiens) (UniProt P28335)
Sequence (P28335 whole entry): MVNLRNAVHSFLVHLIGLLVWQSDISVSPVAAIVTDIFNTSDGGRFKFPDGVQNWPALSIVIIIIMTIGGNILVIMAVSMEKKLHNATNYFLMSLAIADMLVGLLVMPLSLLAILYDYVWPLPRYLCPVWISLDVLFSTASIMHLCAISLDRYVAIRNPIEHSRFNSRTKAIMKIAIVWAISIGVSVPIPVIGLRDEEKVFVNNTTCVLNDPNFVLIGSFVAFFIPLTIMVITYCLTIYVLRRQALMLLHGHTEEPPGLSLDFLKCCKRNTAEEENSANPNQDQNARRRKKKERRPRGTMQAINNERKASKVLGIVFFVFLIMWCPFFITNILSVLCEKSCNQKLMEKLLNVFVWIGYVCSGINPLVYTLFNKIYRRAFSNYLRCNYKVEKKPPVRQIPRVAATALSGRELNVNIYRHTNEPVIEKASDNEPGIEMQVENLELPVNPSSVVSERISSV
PROTOCOL_NOTES: Displacement of [3H]mesulergine from 5HT2C receptor (unknown origin) at 10 uM
Reported inhibition values for a set of molecules

MOLECULE	inhibition (%)
COc1cc2c3c(c1OC)-c1cc4c(cc1CC3N(CC1CC1)CC2c1ccccc1)OCO4 (stereo unspecified)	9.4
COc1cc2c3c(c1OCc1ccc(Br)cc1)-c1cc4c(cc1CC3N(C)CC2c1ccccc1)OCO4 (stereo unspecified)	-6.6
CCCCOc1c(OC)cc2c3c1-c1cc4c(cc1CC3N(C)CC2c1ccccc1)OCO4 (stereo unspecified)	48
CCOc1c(OC)cc2c3c1-c1cc4c(cc1CC3N(C)CC2c1ccccc1)OCO4 (stereo unspecified)	13.5
CCCCCCOc1c(OC)cc2c3c1-c1cc4c(cc1CC3N(C)CC2c1ccccc1)OCO4 (stereo unspecified)	49.3
COc1cc2c3c(c1OC)-c1cc4c(cc1CC3N(C)CC2c1ccccc1)OCO4 (stereo unspecified)	31.9
COc1cc2c3c(c1O)-c1cc4c(cc1CC3N(C)CC2c1ccccc1)OCO4 (stereo unspecified)	-2.3
CCN1CC(c2ccccc2)c2cc(OC)c(OC)c3c2C1Cc1cc2c(cc1-3)OCO2 (stereo unspecified)	-1.6
C=CCOc1c(OC)cc2c3c1-c1cc4c(cc1CC3N(C)CC2c1ccccc1)OCO4 (stereo unspecified)	28.8
CCCOc1c(OC)cc2c3c1-c1cc4c(cc1CC3N(C)CC2c1ccccc1)OCO4 (stereo unspecified)	13.1
COc1cc2c3c(c1OCC1CC1)-c1cc4c(cc1CC3N(C)CC2c1ccccc1)OCO4 (stereo unspecified)	32.4

---

Reported inhibition values for a set of compounds
MEASURED_TARGET: 5-hydroxytryptamine receptor 1B (Homo sapiens)
PROTOCOL_NOTES: Displacement of [3H]GR125743 from 5HT1B receptor (unknown origin) at 10 uM
ATTRIBUTE_MEASURED: inhibition (%)

COMPOUND	ATTRIBUTE_MEASURED	UNIT_SYMBOL	RECORDED_NUMBER
COc1cc2c3c(c1OCc1ccc(Br)cc1)-c1cc4c(cc1CC3N(C)CC2c1ccccc1)OCO4 (stereo unspecified)	inhibition	%	2.1
CCCCCCOc1c(OC)cc2c3c1-c1cc4c(cc1CC3N(C)CC2c1ccccc1)OCO4 (stereo unspecified)	inhibition	%	4.3
COc1cc2c3c(c1OCC1CC1)-c1cc4c(cc1CC3N(C)CC2c1ccccc1)OCO4 (stereo unspecified)	inhibition	%	60.2
CCOc1c(OC)cc2c3c1-c1cc4c(cc1CC3N(C)CC2c1ccccc1)OCO4 (stereo unspecified)	inhibition	%	20.6
CCCOc1c(OC)cc2c3c1-c1cc4c(cc1CC3N(C)CC2c1ccccc1)OCO4 (stereo unspecified)	inhibition	%	51.7
CCCCOc1c(OC)cc2c3c1-c1cc4c(cc1CC3N(C)CC2c1ccccc1)OCO4 (stereo unspecified)	inhibition	%	41.4

---

MEASURED_TARGET: 5-hydroxytryptamine receptor 7 (Homo sapiens) (UniProt P34969)
Sequence (P34969 whole entry): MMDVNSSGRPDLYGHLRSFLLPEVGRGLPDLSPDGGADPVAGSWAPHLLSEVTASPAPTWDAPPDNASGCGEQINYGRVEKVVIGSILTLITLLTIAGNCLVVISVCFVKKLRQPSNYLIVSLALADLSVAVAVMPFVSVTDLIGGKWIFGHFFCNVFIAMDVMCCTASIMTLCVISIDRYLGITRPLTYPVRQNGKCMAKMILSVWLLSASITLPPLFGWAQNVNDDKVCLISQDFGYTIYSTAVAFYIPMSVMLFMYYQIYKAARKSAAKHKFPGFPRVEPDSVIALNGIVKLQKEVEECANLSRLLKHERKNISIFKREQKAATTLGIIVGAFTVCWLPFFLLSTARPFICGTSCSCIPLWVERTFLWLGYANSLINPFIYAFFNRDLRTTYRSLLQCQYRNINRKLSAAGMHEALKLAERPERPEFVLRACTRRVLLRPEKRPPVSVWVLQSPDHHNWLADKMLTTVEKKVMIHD
PROTOCOL_NOTES: Displacement of [3H]LSD from 5HT7 receptor (unknown origin) at 10 uM
Reported inhibition values for a set of molecules
ATTRIBUTE_MEASURED: inhibition (%)

MOLECULE	ATTRIBUTE_MEASURED	UNIT_SYMBOL	RECORDED_NUMBER
CCN1CC(c2ccccc2)c2cc(OC)c(OC)c3c2C1Cc1cc2c(cc1-3)OCO2 (stereo not given)	inhibition	%	8.9
CCCOc1c(OC)cc2c3c1-c1cc4c(cc1CC3N(C)CC2c1ccccc1)OCO4 (stereo not given)	inhibition	%	8.6
C=CCOc1c(OC)cc2c3c1-c1cc4c(cc1CC3N(C)CC2c1ccccc1)OCO4 (stereo not given)	inhibition	%	24.7
CCCCOc1c(OC)cc2c3c1-c1cc4c(cc1CC3N(C)CC2c1ccccc1)OCO4 (stereo not given)	inhibition	%	-5.1
CCOc1c(OC)cc2c3c1-c1cc4c(cc1CC3N(C)CC2c1ccccc1)OCO4 (stereo not given)	inhibition	%	26

---

MEASURED_TARGET: 5-hydroxytryptamine receptor 5A (Homo sapiens)
PROTOCOL_NOTES: Displacement of [3H]LSD from 5HT5A receptor (unknown origin) at 10 uM

MOLECULE	inhibition / %
CCOc1c(OC)cc2c3c1-c1cc4c(cc1CC3N(C)CC2c1ccccc1)OCO4 (stereo not drawn)	-7.6
CCCCCCOc1c(OC)cc2c3c1-c1cc4c(cc1CC3N(C)CC2c1ccccc1)OCO4 (stereo not drawn)	-6.2
C=CCOc1c(OC)cc2c3c1-c1cc4c(cc1CC3N(C)CC2c1ccccc1)OCO4 (stereo not drawn)	-9.8

---

MEASURED_TARGET: 5-hydroxytryptamine receptor 1B (Homo sapiens, UniProt P28222)
Sequence (P28222 whole entry): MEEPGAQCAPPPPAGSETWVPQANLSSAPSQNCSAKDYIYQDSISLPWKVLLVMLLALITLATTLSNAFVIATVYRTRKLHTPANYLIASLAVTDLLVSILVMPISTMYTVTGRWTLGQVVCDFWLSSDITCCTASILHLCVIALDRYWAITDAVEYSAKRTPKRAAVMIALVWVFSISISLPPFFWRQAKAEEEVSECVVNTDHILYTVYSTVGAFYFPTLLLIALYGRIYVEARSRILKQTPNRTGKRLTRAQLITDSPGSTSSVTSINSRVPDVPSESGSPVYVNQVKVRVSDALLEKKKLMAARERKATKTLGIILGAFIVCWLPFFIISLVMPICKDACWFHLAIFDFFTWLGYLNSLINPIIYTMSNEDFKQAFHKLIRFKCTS
pKi: −log10 of the molar value.
ATTRIBUTE_MEASURED: pKi

COMPOUND	ATTRIBUTE_MEASURED	RECORDED_NUMBER
COc1cc2c3c(c1OCC1CC1)-c1cc4c(cc1CC3N(C)CC2c1ccccc1)OCO4 (stereo unspecified)	pKi	5.61

---

MEASURED_TARGET: Alpha-2A adrenergic receptor (Homo sapiens, UniProt P08913)
Sequence (P08913 whole entry): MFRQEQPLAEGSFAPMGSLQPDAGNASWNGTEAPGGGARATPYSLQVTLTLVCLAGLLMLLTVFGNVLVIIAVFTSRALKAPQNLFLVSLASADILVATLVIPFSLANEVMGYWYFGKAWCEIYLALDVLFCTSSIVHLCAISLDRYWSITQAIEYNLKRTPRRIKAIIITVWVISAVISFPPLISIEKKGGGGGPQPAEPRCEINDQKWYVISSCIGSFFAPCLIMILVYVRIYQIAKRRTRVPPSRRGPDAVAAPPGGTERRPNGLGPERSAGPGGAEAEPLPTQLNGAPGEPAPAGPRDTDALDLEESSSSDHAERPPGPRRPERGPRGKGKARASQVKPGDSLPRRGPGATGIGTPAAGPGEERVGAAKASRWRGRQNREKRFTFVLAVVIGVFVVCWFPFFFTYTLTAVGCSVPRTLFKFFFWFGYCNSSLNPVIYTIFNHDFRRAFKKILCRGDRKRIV
pKi: −log10 of the molar value.
ATTRIBUTE_MEASURED: pKi

COMPOUND	RECORDED_NUMBER
COc1cc2c3c(c1OC)-c1cc4c(cc1CC3N(C)CC2c1ccccc1)OCO4 (stereo unspecified)	6.14

---

MEASURED_TARGET: 5-hydroxytryptamine receptor 1A (Homo sapiens)
Sequence (whole entry): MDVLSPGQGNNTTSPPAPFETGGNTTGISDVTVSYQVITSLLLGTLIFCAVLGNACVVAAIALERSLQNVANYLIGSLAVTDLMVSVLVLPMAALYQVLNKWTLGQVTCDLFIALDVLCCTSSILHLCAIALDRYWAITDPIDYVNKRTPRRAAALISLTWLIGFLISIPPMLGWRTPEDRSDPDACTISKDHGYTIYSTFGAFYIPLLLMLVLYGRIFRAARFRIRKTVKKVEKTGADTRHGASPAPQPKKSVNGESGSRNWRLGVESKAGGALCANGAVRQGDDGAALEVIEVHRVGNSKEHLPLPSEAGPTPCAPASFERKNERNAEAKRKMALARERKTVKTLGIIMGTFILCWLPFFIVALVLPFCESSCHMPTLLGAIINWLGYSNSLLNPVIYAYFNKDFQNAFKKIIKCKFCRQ
PROTOCOL_NOTES: Displacement of [3H]-8-OH-DPAT from 5HT1A receptor (unknown origin) at 10 uM

MOLECULE	MEASURED_TARGET	inhibition
CCCOc1c(OC)cc2c3c1-c1cc4c(cc1CC3N(C)CC2c1ccccc1)OCO4 (stereo not given)	5-hydroxytryptamine receptor 1A (Homo sapiens)	27%
COc1cc2c3c(c1OCc1ccc(Br)cc1)-c1cc4c(cc1CC3N(C)CC2c1ccccc1)OCO4 (stereo not given)	5-hydroxytryptamine receptor 1A (Homo sapiens)	25.9%
COc1cc2c3c(c1OC)-c1cc4c(cc1CC3N(CC1CC1)CC2c1ccccc1)OCO4 (stereo not given)	5-hydroxytryptamine receptor 1A (Homo sapiens)	13.3%
CCCCOc1c(OC)cc2c3c1-c1cc4c(cc1CC3N(C)CC2c1ccccc1)OCO4 (stereo not given)	5-hydroxytryptamine receptor 1A (Homo sapiens)	18.4%
C=CCOc1c(OC)cc2c3c1-c1cc4c(cc1CC3N(C)CC2c1ccccc1)OCO4 (stereo not given)	5-hydroxytryptamine receptor 1A (Homo sapiens)	19.2%
CCOc1c(OC)cc2c3c1-c1cc4c(cc1CC3N(C)CC2c1ccccc1)OCO4 (stereo not given)	5-hydroxytryptamine receptor 1A (Homo sapiens)	-0.9%
COc1cc2c3c(c1O)-c1cc4c(cc1CC3N(C)CC2c1ccccc1)OCO4 (stereo not given)	5-hydroxytryptamine receptor 1A (Homo sapiens)	24.2%
COc1cc2c3c(c1OC)-c1cc4c(cc1CC3N(C)CC2c1ccccc1)OCO4 (stereo not given)	5-hydroxytryptamine receptor 1A (Homo sapiens)	5.5%
COc1cc2c3c(c1OCC1CC1)-c1cc4c(cc1CC3N(C)CC2c1ccccc1)OCO4 (stereo not given)	5-hydroxytryptamine receptor 1A (Homo sapiens)	-9.8%
CCN1CC(c2ccccc2)c2cc(OC)c(OC)c3c2C1Cc1cc2c(cc1-3)OCO2 (stereo not given)	5-hydroxytryptamine receptor 1A (Homo sapiens)	3.3%
